Tested on: HPPD polypeptides
experimental-details: coupled HPPD activity assay: turnover and residual turnover in crude extracts
Assay type: biochemical, Pseudomonas fluorescens
applied-conditions: presence of 100 μM Cmpd. 1; high substrate concentration; changes in absorbance (OD) at 320 nm
Protocol: The activity of HPPD polypeptides was determined in absence or presence of HPPD inhibitors using the coupled HPPD activity assay (FIG. 1). […] Residual turnover were determined according to Example 3 by measuring total change in signal in the presence and absence of Cmpd. […]
recorded-endpoint: Residual turnover

Query :: Would you kindly share the measured Residual turnover for 67 (protein, mutant HPPD polypeptide) MADLYENPMGLMGFEFIEFASPTPGTLEPIFEIMGFTKVATHRSKNVHLYRQGEINLILNNEPNSIASYFAAEHGPSVCGMAFRVKDSQKAYNRALELGAQPIHIDTGPMELNLPAIKGIGGAPLYLIDRFGEGSSIYDIDFVYLEGVERNPVGAGLKVIDHLTHNVYRGRMVYWANFYEKLFNFREARYFDIKGEYTGLTSKAMSAPDGMIKIPLNEESSKGAGQIEEFLMQFNGEGIQHVAFLTDDLVKTWDALKKIGMRFMTAPADSYYEMLEGRLPDHGEPVDQLQARGILLDGSSVEGDKRLLLQIFSERLMGPVFFEFIQRKGDDGFGPHSFKVLFEQMERDQVRRGVLTAD ?
Result :: 0.215

Query :: Look up Residual turnover for this molecule: 31 (protein, mutant HPPD polypeptide) MADLYENPMGLMGFEFIEFASPTPGTLEPIFEIMGFTKVATHRSKNVHLYRQGEINLILNNEPNSIASYFAAEHGPSVCGMAFRVKDSQKAYNRALELGAQPIHIDTGPMELNLPAIKGIGGAPLYLIDRFGEGSSIYDIDFVYLEGVERNPVGAGLKVIDHLTHNVYRGRMVYWANFYEKLFNFREARYFDIKGEYTGLTSKAMSAPDGMIRIPLNEESSKGAGQIEEFLMQFNGEGIQHVAFLTDDLVKTWDALKKIGMRFMTAPGDTYYEMLEGRLPDHGEPVDQLQARGILLDGSSVEGDKRLLLQIFSETLMGPVFFEFIQRKGDDGFGPHSFKVLFESVERDQVRRGVLTAD
Result :: 0.098

Query :: Query: Residual turnover; subject: 58 (protein, mutant HPPD polypeptide) MADLYENPMGLMGFEFIEFASPTPGTLEPIFEIMGFTKVATHRSKNVHLYRQGEINLILNNEPNSIASYFAAEHGPSVCGMAFRVKDSQKAYNRALELGAQPIHIDTGPMELNLPAIKGIGGAPLYLIDRFGEGSSIYDIDFVYLEGVERNPVGAGLKVIDHLTHNVYRGRMVYWANFYEKLFNFREARYFDIKGEYTGLTSKAMSAPDGMIRIPLNEESSKGAGQIEEFLMQFNGEGIQHVAFLTDDLVKTWDALKKIGMRFMTAPADSYYEMLEGRLPDHGEPVDQLQARGILLDGSSVEGDKRLLLQIFSETLMGPVFFEFIQRKGDDGFGPDSFKVLFESIERDQVRRGVLTAD
Result :: 0.065

Query :: # query: Residual turnover of entry 33 (protein, mutant HPPD polypeptide) MADLYENPMGLMGFEFIEFASPTPGTLEPIFEIMGFTKVATHRSKNVHLYRQGEINLILNNEPNSIASYFAAEHGPSVCGMAFRVKDSQKAYNRALELGAQPIHIDTGPMELNLPAIKGIGGAPLYLIDRFGEGSSIYDIDFVYLEGVERNPVGAGLKVIDHLTHNVYRGRMVYWANFYEKLFNFREARYFDIKGEYTGLTSKAMSAPDGMIRIPLNEESSKGAGQIEEFLMQFNGEGIQHVAFLTDDLVKTWDALKKIGMRFMTAPADNYYEMLEGRLPDHGEPVDQLQARGILLDGSSVEGDKRLLLQIFSETLMGPVFFEFIQRKGDDGFGPHSFKVLFESVERDQVRRGVLTAD
Result :: 0.087

Entry source: patent US11180770B2
